A collection of variants and their measured 8OG:A repair function score
B1: library; numbered along this chain (parent)
chain: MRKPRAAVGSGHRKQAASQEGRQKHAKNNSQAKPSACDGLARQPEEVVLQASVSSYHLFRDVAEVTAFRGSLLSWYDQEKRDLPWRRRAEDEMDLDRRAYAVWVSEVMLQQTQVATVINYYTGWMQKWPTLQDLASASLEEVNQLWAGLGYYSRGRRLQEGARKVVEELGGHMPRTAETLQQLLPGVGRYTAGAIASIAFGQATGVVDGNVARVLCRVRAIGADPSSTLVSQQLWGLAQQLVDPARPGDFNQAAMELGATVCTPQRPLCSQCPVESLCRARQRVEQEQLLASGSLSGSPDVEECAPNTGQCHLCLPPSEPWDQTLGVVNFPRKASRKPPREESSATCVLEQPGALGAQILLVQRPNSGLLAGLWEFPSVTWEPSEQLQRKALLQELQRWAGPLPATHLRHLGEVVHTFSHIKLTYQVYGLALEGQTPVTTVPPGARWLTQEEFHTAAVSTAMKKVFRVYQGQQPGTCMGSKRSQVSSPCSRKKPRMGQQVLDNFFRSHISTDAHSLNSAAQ

# Variants of: B1
# assay text: 8OG:A repair function score (normalized; synonymous = 0, nonsense = -1) (normalized log-likelihood score); higher = more repair activity (WT-like);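 note: cells sorted at 72 h after reporter transfection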
# condition notes: with 8OG:A DNA repair reporter (GFP) in HEK-293 MUTYH KO cells
Just the number, please.

Prompt: Entry V218H has what 8OG:A repair function score?
Response: -0.41

Prompt: Entry L145I has what 8OG:A repair function score?
Response: -0.102

Prompt: Entry G155P has what 8OG:A repair function score?
Response: -0.0172

Prompt: Entry Q132H has what 8OG:A repair function score?
Response: -0.0442

Prompt: Entry G161C has what 8OG:A repair function score?
Response: -0.293

// provenance: the supplement of paper PMC11908140
